MEASURED_ON: T1, Recombinant human glypican-3 (aa 1-559), His-tagged (R&D Systems) (human, UniProt P51654 25-559)
T1 construct: also called huGPC3; human GPC3
PROCEDURE_TEXT: SPR 1-point off-rate, ratio to parental ADX_6077_F02
Protocol: Surface plasmon resonance (SPR) was performed to calculate off-rates (kd) and binding affinities of α-GPC3 adnectins and tubulysin-conjugated AdxDCs using a Biacore T100 instrument (GE Healthcare). […] Rate constants kₐ (kₒₙ) and kd (koff) were derived from reference-subtracted sensorgrams fit to a 1:1 binding model in Biacore T100 Evaluation Software v2.0.4 (GE Healthcare). The affinity constant, KD was calculated from the ratio of rate constants kd/kₐ. […]
MEASURED_QUANTITY: huGPC3 koff (mut/par) (ratio mutant/parent)
Use ratio mutant/parent as the unit, but write only the number.

The cases that follow already have their huGPC3 koff (mut/par) on record.
1) ADX_6077_F02 DG→DS mutant, alkylated (designed binder, C-terminal cysteine alkylated, also called P1-055667) GVSDVPRDLEVVAATPTSLLISWSDDYHAHRYYRITYGETGGNSPVQEFTVPGEHVTATISGLKPGVDYTITVYAVTYDSEKAATDWSISINYRTPC: 3.5
2) ADX_6077_F02 DG→DA mutant, alkylated (designed binder, C-terminal cysteine alkylated, also called P1-055660) GVSDVPRDLEVVAATPTSLLISWSDDYHAHRYYRITYGETGGNSPVQEFTVPGEHVTATISGLKPGVDYTITVYAVTYDAEKAATDWSISINYRTPC: 3.9
3) ADX_6077_F02 DG→GG mutant, alkylated (designed binder, C-terminal cysteine alkylated, also called P1-055670) GVSDVPRDLEVVAATPTSLLISWSDDYHAHRYYRITYGETGGNSPVQEFTVPGEHVTATISGLKPGVDYTITVYAVTYGGEKAATDWSISINYRTPC: 14
4) ADX_6077_F02 DG→DV mutant, alkylated (designed binder, C-terminal cysteine alkylated, also called P1-055672) GVSDVPRDLEVVAATPTSLLISWSDDYHAHRYYRITYGETGGNSPVQEFTVPGEHVTATISGLKPGVDYTITVYAVTYDVEKAATDWSISINYRTPC: 7.9
5) ADX_6077_F02 DG→DL mutant, alkylated (designed binder, C-terminal cysteine alkylated, also called P1-055671) GVSDVPRDLEVVAATPTSLLISWSDDYHAHRYYRITYGETGGNSPVQEFTVPGEHVTATISGLKPGVDYTITVYAVTYDLEKAATDWSISINYRTPC: 3.6

Query string: Look up huGPC3 koff (mut/par) of ADX_6077_F02 DG→AG mutant, alkylated (designed binder, C-terminal cysteine alkylated, also called P1-055669) GVSDVPRDLEVVAATPTSLLISWSDDYHAHRYYRITYGETGGNSPVQEFTVPGEHVTATISGLKPGVDYTITVYAVTYAGEKAATDWSISINYRTPC and report it.
Result string: 5.9
